# Test system: PA-1
# Assay Protocol: Primary qHTS to identify gynecologic anti-cancer compounds using libraries of approved drugs and bioactive compounds (AID 1345084); further: nearly all actives have a fitted effect of over 55% in size
# Experimental Setup: Gynecologic cancer cell panel viability, ATPlite luminescence, 48 h; series mostly up to 57.5 µM
Inconclusive results are not listed. The source made the active and inactive calls. The call rests on the fitted dose curve; in most records, active means well fitted cell-killing curve with a large enough effect; inconclusive means small, poorly fitted or top-dose-only effect, or effect the other way; inactive means flat fitted curve, though single readings scatter.
Outcome codes: active, inactive

>>> class_name("CC(C)(C#N)c1cc(Cn2cncn2)cc(C(C)(C)C#N)c1")
"inactive"
>>> class_name("CNC1CCCN(c2c(F)cc3c(=O)c(C(=O)O)cn(C4CC4)c3c2OC)C1 (configuration not stated)")
"inactive"
>>> class_name("CCOC(=O)c1ccc(C#Cc2ccc3c(c2)C(C)(C)CCS3)nc1")
"inactive"
>>> class_name("O=C(NCC1CN(c2ccc(N3CCOCC3=O)cc2)C(=O)O1)c1ccc(Cl)s1 (configuration not stated)")
"inactive"
>>> class_name("O=C(O)c1cccnc1")
"inactive"
>>> class_name("COc1cnc(NS(=O)(=O)c2ccc(N)cc2)nc1")
"inactive"
>>> class_name("S=P(N1CC1)(N1CC1)N1CC1")
"inactive"
>>> class_name("CCN[C@H]1C[C@H](C)S(=O)(=O)c2sc(S(N)(=O)=O)cc21")
"inactive"
>>> class_name("CCOC(=O)[C@H](CCc1ccccc1)N[C@H]1CS[C@H](c2cccs2)CN(CC(=O)O)C1=O")
"inactive"
>>> class_name("CN(C)CCc1c[nH]c2ccc(CS(=O)(=O)N3CCCC3)cc12")
"inactive"
>>> class_name("Nc1nc(N)nc(-c2cc(Cl)ccc2Cl)n1")
"inactive"
>>> class_name("CC[C@H](C)C(=O)O[C@H]1C[C@@H](C)C=C2C=C[C@H](C)[C@H](CC[C@@H]3C[C@@H](O)CC(=O)O3)[C@H]21")
"inactive"
>>> class_name("C[C@@H](CN1CC(=O)NC(=O)C1)N1CC(=O)NC(=O)C1")
"inactive"
>>> class_name("CC(C)OC(=O)C(C(=O)OC(C)C)=C1SC=CS1")
"inactive"
>>> class_name("NC1(c2ccc(-c3nc4ccn5c(=O)[nH]nc5c4cc3-c3ccccc3)cc2)CCC1")
"active"
>>> class_name("Cc1noc(NS(=O)(=O)c2ccc(N)cc2)c1C")
"inactive"
>>> class_name("Nc1nc(=S)c2[nH]cnc2[nH]1")
"active"
>>> class_name("N=C(N)c1ccc(OCCCCCOc2ccc(C(=N)N)cc2)cc1")
"active"
>>> class_name("CC(C)C[C@H](NC(=O)[C@H](CCc1ccccc1)NC(=O)CN1CCOCC1)C(=O)N[C@@H](Cc1ccccc1)C(=O)N[C@@H](CC(C)C)C(=O)[C@@]1(C)CO1")
"active"
>>> class_name("COC(=O)Nc1nc2ccc(C(=O)c3ccccc3)cc2[nH]1")
"active"
>>> class_name("CNS(=O)(=O)CCc1ccc2[nH]cc(C3CCN(C)CC3)c2c1")
"inactive"
>>> class_name("COC(=O)Nc1nc2ccc(S(=O)c3ccccc3)cc2[nH]1 (configuration not stated)")
"active"

----------
# Assay Protocol: Confirmatory qHTS for small molecule stabilizers of the endoplasmic reticulum resident proteome: Secreted ER Calcium Modulated Protein (SERCaMP) assay (AID 1508628); further: nearly all actives have a fitted effect of over 40% in size
# Experimental Setup: SERCaMP secreted luciferase ER calcium/proteostasis reporter; series mostly up to 76.3 µM
Inconclusive results are not listed. Calls of active or inactive are those of the source. Calls follow the shape of the dose curve; as a rule, active = well fitted inhibition curve with a large enough effect; inconclusive = small, poorly fitted or top-dose-only effect; inactive = no such curve, though single readings can be large or run the other way.
Outcome codes: 1 = active, 0 = inactive

>>> class_name("CCn1cc(C(=O)O)c(=O)c2cc(F)c(N3CCNCC3)nc21")
0
>>> class_name("CNCC[C@H](Oc1cccc2ccccc12)c1cccs1")
0
>>> class_name("CN1CCCC(n2nc(Cc3ccc(Cl)cc3)c3ccccc3c2=O)CC1 (stereo not given)")
1
>>> class_name("CC(C)(Sc1cc(C(C)(C)C)c(O)c(C(C)(C)C)c1)Sc1cc(C(C)(C)C)c(O)c(C(C)(C)C)c1")
0
>>> class_name("S=P(N1CC1)(N1CC1)N1CC1")
0

----------
# Assay Protocol: Quantitative High-Throughput drug screen in 47 multiple myeloma cell lines against the NCATS MIPE library collection: KMM1_JCRB cell viability assay (AID 1918960); further: nearly all actives have a fitted effect of over 30% in size
# Experimental Setup: KMM1 myeloma viability, CellTiter-Glo ATP luminescence, 48 h; series mostly up to 45.8 µM
Results filed as inconclusive are left out. Calls of active or inactive are those of the source. The call rests on the fitted dose curve; in most records, active means well fitted cell-killing curve with a large enough effect; inconclusive means small, poorly fitted or top-dose-only effect, or effect the other way; inactive means no such curve, though single readings can be large or run the other way.
Outcome codes: 1.0 for active, 0.0 for inactive

>>> class_name("O=C(O)c1cc(=O)[nH]c(=O)[nH]1")
0.0
>>> class_name("CO[C@@]12[C@H](COC(N)=O)C3=C(C(=O)C(C)=C(N)C3=O)N1C[C@@H]1N[C@@H]12")
0.0
>>> class_name("CCN[C@H]1C[C@H](C)S(=O)(=O)c2sc(S(N)(=O)=O)cc21")
0.0
>>> class_name("Nc1nc(=S)c2[nH]cnc2[nH]1")
0.0
>>> class_name("Cc1cc(NS(=O)(=O)c2ccc(N)cc2)no1")
0.0
>>> class_name("COc1ccc2cc3[n+](cc2c1OC)CCc1cc2c(cc1-3)OCO2")
1.0

----------
# Assay Protocol: Quantitative High-Throughput drug screen in 47 multiple myeloma cell lines against the NCATS MIPE library collection: XG6_PLB cell viability assay (AID 1919865); further: nearly all actives have a fitted effect of over 40% in size
# Experimental Setup: XG6 myeloma viability, CellTiter-Glo ATP luminescence, 48 h; series mostly up to 45.8 µM
Inconclusive results are not listed. Active and inactive are the calls of the source. The call rests on the fitted dose curve; in most records, active means well fitted cell-killing curve with a large enough effect; inconclusive means small, poorly fitted or top-dose-only effect, or effect the other way; inactive means no such curve, though single readings can be large or run the other way.
Outcome codes: true (active), false (inactive)

>>> class_name("Cn1c(=O)c2c(ncn2CC(O)CO)n(C)c1=O (stereo unspecified)")
"false"
>>> class_name("O=C(O)C1CCCN(CCC=C(c2ccccc2)c2ccccc2)C1 (stereo unspecified)")
"false"
>>> class_name("Cc1onc(-c2ccccc2Cl)c1C(=O)N[C@@H]1C(=O)N2[C@@H]1SC(C)(C)[C@@H]2C(=O)O")
"false"
>>> class_name("S=P(N1CC1)(N1CC1)N1CC1")
"true"
>>> class_name("CCCc1cc(C(N)=S)ccn1")
"false"
>>> class_name("CC1=C(C(=O)O)N2C(=O)[C@@H](NC(=O)C(N)c3ccccc3)[C@H]2SC1 (stereo partly specified)")
"false"
>>> class_name("O=P(O)(O)C(O)(Cc1cccnc1)P(=O)(O)O")
"false"
>>> class_name("CO[C@@H]1[C@@H](OC(N)=O)[C@@H](O)[C@H](Oc2ccc3c(O)c(NC(=O)c4ccc(O)c(CC=C(C)C)c4)c(=O)oc3c2C)OC1(C)C")
"true"
>>> class_name("NS(=O)(=O)c1cc2c(cc1Cl)NC(C(Cl)Cl)NS2(=O)=O (stereo unspecified)")
"false"
>>> class_name("CCCN[C@H]1CCc2nc(N)sc2C1")
"false"
>>> class_name("O=C(O)CSCC(=O)NC1CCSC1=O (stereo unspecified)")
"false"

----------
# Assay Protocol: qHTS of pediatric cancer cell lines to identify multiple opportunities for drug repurposing: Primary screen for OHS-50 cells (AID 1347103); further: nearly all actives have a fitted effect of over 40% in size; further: potency means the concentration at half of the fitted maximal effect
# Experimental Setup: OHS-50 osteosarcoma viability, CellTiter-Glo luminescence, 48 h; series mostly up to 57.3 µM
Inconclusive results are not listed. The source made the active and inactive calls. Calls come from the whole dose curve; as a rule, active = well fitted cell-killing curve with a large enough effect; inconclusive = small, poorly fitted or top-dose-only effect; inactive = no such curve, though single readings can be large or run the other way.
Parameter: Potency

>>> observed_value("CCCOc1ccc(C(=O)OCCN(CC)CC)cc1N")
"inactive"
>>> observed_value("COc1nc(N)nc2c1ncn2[C@@H]1O[C@H](CO)[C@@H](O)[C@@H]1O")
"inactive"
>>> observed_value("CO[C@@]12[C@H](COC(N)=O)C3=C(C(=O)C(C)=C(N)C3=O)N1C[C@@H]1N[C@@H]12")
"3.85 µM (active)"
>>> observed_value("O=c1oc2c(O)c(O)cc3c(=O)oc4c(O)c(O)cc1c4c23")
"inactive"
>>> observed_value("Cc1ccnc2c1NC(=O)c1cccnc1N2C1CC1")
"inactive"
>>> observed_value("CN(C)CCc1c[nH]c2ccc(C[C@H]3COC(=O)N3)cc12")
"inactive"

----------
# Assay Protocol: qHTS of pediatric cancer cell lines to identify multiple opportunities for drug repurposing: Primary screen for Saos-2 cells (AID 1347097); further: nearly all actives have a fitted effect of over 40% in size
# Experimental Setup: Saos-2 viability, CellTiter-Glo ATP luminescence, 48 h; series mostly up to 46 µM
Results filed as inconclusive are left out. Calls of active or inactive are those of the source. Calls come from the whole dose curve; as a rule, active = well fitted cell-killing curve with a large enough effect; inconclusive = small, poorly fitted or top-dose-only effect; inactive = no such curve, though single readings can be large or run the other way.
Outcome codes: active, inactive

>>> class_name("Cc1oc(=O)oc1CN1CCN(c2cc3c(cc2F)c(=O)c(C(=O)O)c2n3C(C)S2)CC1 (centres undefined)")
"inactive"
>>> class_name("O=c1cc(O)c(Cl)c[nH]1")
"inactive"
>>> class_name("N[C@@H](C(=O)N[C@@H]1C(=O)N2C(C(=O)O)=C(Cl)CS[C@H]12)c1ccccc1")
"inactive"
>>> class_name("O=S(=O)(O)CCS")
"inactive"
>>> class_name("CN(CCOc1ccc(CC2SC(=O)NC2=O)cc1)c1ccccn1 (centres undefined)")
"inactive"
>>> class_name("COC(c1ccccc1)(c1ccccc1)[C@H](Oc1nc(C)cc(C)n1)C(=O)O")
"inactive"
>>> class_name("N[C@@H](Cc1ccc(O)c(O)c1)C(=O)O")
"inactive"
>>> class_name("CCN(CC)CC#CCOC(=O)C(O)(c1ccccc1)C1CCCCC1 (centres undefined)")
"inactive"
>>> class_name("CCOCC(O)COc1ccc(NC(=O)CC[S+](C)C)cc1 (centres undefined)")
"inactive"
>>> class_name("Cc1cc(NS(=O)(=O)c2ccc(N)cc2)no1")
"inactive"
>>> class_name("CCn1cc(C(=O)O)c(=O)c2cc(F)c(N3CCNCC3)cc21")
"inactive"
>>> class_name("CCCCOc1ccc(CC(=O)NO)cc1")
"active"
>>> class_name("CC(C)(C#N)c1cc(Cn2cncn2)cc(C(C)(C)C#N)c1")
"inactive"
>>> class_name("O=C(N[C@H](CO)[C@H](O)c1ccc([N+](=O)[O-])cc1)C(Cl)Cl")
"inactive"
>>> class_name("CC(C)NCC(O)c1ccc(NS(C)(=O)=O)cc1 (centres undefined)")
"inactive"
>>> class_name("CO[C@@]12[C@H](COC(N)=O)C3=C(C(=O)C(C)=C(N)C3=O)N1C[C@@H]1N[C@@H]12")
"inactive"
>>> class_name("CCN1CCCC1CNC(=O)c1cc(S(N)(=O)=O)ccc1OC (centres undefined)")
"inactive"
>>> class_name("Cc1cccc(Nc2ccncc2S(=O)(=O)NC(=O)NC(C)C)c1")
"inactive"
>>> class_name("Cn1c(=O)c2c(ncn2CC(O)CO)n(C)c1=O (centres undefined)")
"inactive"
>>> class_name("CCc1cc(C(N)=S)ccn1")
"inactive"
>>> class_name("OC(Cn1cncn1)(Cn1cncn1)c1ccc(F)cc1F")
"inactive"
>>> class_name("CC[C@H](C)C(=O)O[C@H]1C[C@@H](C)C=C2C=C[C@H](C)[C@H](CC[C@@H]3C[C@@H](O)CC(=O)O3)[C@H]21")
"active"
>>> class_name("O=P(O)(O)C(O)(Cc1cccnc1)P(=O)(O)O")
"inactive"
>>> class_name("Cc1nnc(NS(=O)(=O)c2ccc(N)cc2)s1")
"inactive"

Measured values drawn from PubChem BioAssay (NCATS) for this set.
